Target: T1, APC3881-AA
T1 chain: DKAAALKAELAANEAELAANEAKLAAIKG
Experiment: two-hybrid library CCmax;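 note: natural log of median RNA to DNA barcode read ratio; higher means stronger binding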
Conditions: mean of both orientations
assay-endpoint: interaction score

Answered cases to consult:
binder	recorded-result
DEAAALEAKAAALKAKLAAEKAKNAALKG [APC2375-AA]	-1.74
DKAAALKAEAAALEAELAAEEAKNAALKG [APC3265-AA]	-1.45

A. DEAAALEAKNAALKAENAALEAKAAALKG [APC2543-AA]
B. DEAAALEAKLAAEKAEAAALEAENAALEG [APC2724-AA]
Just tell me: smaller interaction score value, A or B ? Identify your pick by its label. B
(B: -2.62, A: -1.22)

Attribution: paper PMC10397247
